B1: glmS ribozyme (parent)
chain: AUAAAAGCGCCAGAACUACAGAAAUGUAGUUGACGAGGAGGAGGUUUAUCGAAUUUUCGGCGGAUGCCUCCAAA

# Variants of: B1
# assay name: self-cleavage kobs at 40 uM GlcN6P; higher = faster cleavage; RNA array
# condition label: with glucosamine-6-phosphate
Fewer inactive variants are shown than the library holds.
measured attribute: self-cleavage kobs at 40 uM GlcN6P

Examples from the recorded data:
variant spec: U31C U54A
self-cleavage kobs at 40 uM GlcN6P: 0.000119 s⁻¹

variant spec: A15C U47G G51A U56C
self-cleavage kobs at 40 uM GlcN6P: < 1e-05 s⁻¹

variant spec: C11U G29U A39U A64U
self-cleavage kobs at 40 uM GlcN6P: < 1e-05 s⁻¹

variant spec: C11G A39G G63U
self-cleavage kobs at 40 uM GlcN6P: < 1e-05 s⁻¹

variant spec: C10U G13A C67A
self-cleavage kobs at 40 uM GlcN6P: < 1e-05 s⁻¹

variant spec: U55A G60C
self-cleavage kobs at 40 uM GlcN6P: < 1e-05 s⁻¹

variant spec: U49C G62C
self-cleavage kobs at 40 uM GlcN6P: < 1e-05 s⁻¹

variant spec: C11G G60U
self-cleavage kobs at 40 uM GlcN6P: < 1e-05 s⁻¹

variant spec: A6C G29C A53U
self-cleavage kobs at 40 uM GlcN6P: < 1e-05 s⁻¹

variant spec: G38U U56G C61A C68G
self-cleavage kobs at 40 uM GlcN6P: 0.000276 s⁻¹

As a next step, examine the variant that follows.
Can you share its self-cleavage kobs at 40 uM GlcN6P? I mean this variant: A36U U69A
5.11e-05 s⁻¹

Measured values drawn from the supplement of paper PMC7125110 for this set.
